Listing of recorded pIC50 by entry.
- target_entity: recombinant human His6-USP1/His6-UAF1 composite protein (Homo sapiens (Human), UniProt O94782)
- Sequence (O94782 whole entry): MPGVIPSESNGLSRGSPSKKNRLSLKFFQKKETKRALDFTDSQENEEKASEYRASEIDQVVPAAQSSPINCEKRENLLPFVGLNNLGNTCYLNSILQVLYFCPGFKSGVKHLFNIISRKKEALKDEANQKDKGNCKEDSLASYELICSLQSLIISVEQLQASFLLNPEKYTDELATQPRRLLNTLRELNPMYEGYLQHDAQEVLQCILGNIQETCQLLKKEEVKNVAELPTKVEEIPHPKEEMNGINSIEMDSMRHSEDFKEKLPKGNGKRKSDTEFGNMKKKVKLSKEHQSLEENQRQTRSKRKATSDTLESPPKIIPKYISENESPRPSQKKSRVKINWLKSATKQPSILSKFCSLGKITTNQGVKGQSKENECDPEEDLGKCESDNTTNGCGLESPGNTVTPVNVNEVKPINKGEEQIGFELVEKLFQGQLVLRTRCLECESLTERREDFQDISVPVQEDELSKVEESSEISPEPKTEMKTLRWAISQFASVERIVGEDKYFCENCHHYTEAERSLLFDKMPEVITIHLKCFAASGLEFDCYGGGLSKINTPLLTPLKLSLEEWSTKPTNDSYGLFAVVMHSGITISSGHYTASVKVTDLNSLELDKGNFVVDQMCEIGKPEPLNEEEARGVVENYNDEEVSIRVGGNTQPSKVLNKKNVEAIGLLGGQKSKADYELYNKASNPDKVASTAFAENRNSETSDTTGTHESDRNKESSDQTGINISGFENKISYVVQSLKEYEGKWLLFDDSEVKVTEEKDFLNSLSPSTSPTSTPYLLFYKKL
- Sequence (Q8TAF3 whole entry partner): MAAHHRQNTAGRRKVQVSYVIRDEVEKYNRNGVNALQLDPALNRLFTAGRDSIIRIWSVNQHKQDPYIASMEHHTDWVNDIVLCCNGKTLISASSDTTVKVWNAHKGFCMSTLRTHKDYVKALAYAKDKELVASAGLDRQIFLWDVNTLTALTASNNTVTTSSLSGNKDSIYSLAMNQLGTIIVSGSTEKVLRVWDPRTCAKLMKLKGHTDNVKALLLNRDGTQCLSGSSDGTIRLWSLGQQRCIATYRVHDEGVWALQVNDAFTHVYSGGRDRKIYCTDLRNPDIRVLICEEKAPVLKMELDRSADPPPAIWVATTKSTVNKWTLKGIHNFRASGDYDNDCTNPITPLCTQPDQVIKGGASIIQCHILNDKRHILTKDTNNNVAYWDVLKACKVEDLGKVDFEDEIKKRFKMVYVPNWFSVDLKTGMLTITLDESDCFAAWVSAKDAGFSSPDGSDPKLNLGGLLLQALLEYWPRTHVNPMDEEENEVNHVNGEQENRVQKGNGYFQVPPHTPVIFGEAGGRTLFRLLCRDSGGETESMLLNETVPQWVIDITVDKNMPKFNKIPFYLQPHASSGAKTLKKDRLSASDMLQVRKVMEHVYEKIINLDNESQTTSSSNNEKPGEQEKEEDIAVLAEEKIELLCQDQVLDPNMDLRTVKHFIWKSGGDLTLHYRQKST
- test_method_notes: USP1 enzyme activity detection (Ub-Rho fluorescence)
- condition_summary: USP1/UAF1, Ub-Rho substrate 300 nM, 1 hour pre-incubation; read-out: IC50 (enzymatic inhibition of USP1)
pIC50: −log10 of the molar value.
reported_metric: pIC50

• COc1ncnc(C2CC2)c1-c1ncc2c3cn(C)nc3n(Cc3ccc4c(c3)CCCCn3cc(C(F)(F)F)nc3-4)c2n1 [Compound 138] = 8.74
• COc1ccc2c3cnc(-c4c(OC)ncnc4C4CC4)nc3n(Cc3ccc(-c4nc(C(F)(F)F)cn4C(C)C)cc3)c2c1 [Compound 7] = 8.24
• COc1ncnc(C2CC2)c1-c1ncc2c3cn(C)nc3n(Cc3ccc(-c4nc(C(F)(F)F)c5n4CCCC5)cc3)c2n1 [Compound 120] = 8.71
• COc1ncnc(C2CC2)c1-c1ncc2c3cc(F)cnc3n(Cc3ccc(-c4nc(C(F)(F)F)cn4C)cc3)c2n1 [Compound 117] = 8.45
• [2H]C([2H])([2H])n1cc2c3cnc(-c4c(OC)ncnc4C4CC4)nc3n(Cc3ccc(-c4nc(C(F)(F)F)cn4C(C)C)cc3)c2n1 [Compound 110] = 8.02
• COc1ncnc(C2CC2)c1-c1ncc2c3ccc(F)nc3n(Cc3ccc4c(c3)CCCn3cc(C(F)(F)F)nc3-4)c2n1 [Compound 94] = 8.43

---

- target_entity: recombinant human His6-USP1/His6-UAF1 composite protein (Homo sapiens (Human))
- test_method_notes: USP1 enzyme activity detection (Ub-Rho fluorescence)
- condition_summary: USP1/UAF1, Ub-Rho substrate 300 nM, 1 hour pre-incubation; read-out: IC50 (enzymatic inhibition of USP1)
reported_metric: IC50 (nM)

- COc1ncnc(C2CC2)c1-c1ncc2c3cn(C)nc3n(Cc3ccc(-c4nc(C(F)(F)F)cs4)cc3)c2n1: 10.2
- COc1ncnc(C2CC2)c1-c1ncc2c3cn(C)nc3n(Cc3ccc4c(c3)C3C(Cn5cc(C(F)(F)F)nc5-4)C3(F)F)c2n1 (stereo not shown): 22
- COc1ncnc(C2CC2)c1-c1ncc2c3ncccc3n(Cc3ccc(-c4nc(C(F)(F)F)cn4C(C)C)cc3)c2n1: 5.55
- CC(C)c1ccccc1-c1ncc2c3ccncc3n(Cc3ccc(-c4nc(C(F)(F)F)cn4C)cc3)c2n1: 2.04
- COc1ncnc(C2CC2)c1-c1ncc2c3cc(C(F)(F)F)ccc3n(Cc3ccc(-c4nc(C(F)(F)F)cn4C(C)C)cc3)c2n1: 135
- CCn1cc(C(F)(F)F)nc1-c1ccc(Cn2c3cnccc3c3cnc(-c4c(OC)ncnc4C4CC4)nc32)cc1: 1.62
- COc1ncnc(C2CC2)c1-c1ncc2c3cccc(OC)c3n(Cc3ccc(-c4nc(C(F)(F)F)cn4C(C)C)cc3)c2n1: 3.6

---

- target_entity: recombinant human His6-USP1/His6-UAF1 composite protein (Homo sapiens (Human), UniProt O94782)
- test_method_notes: USP1 enzyme activity detection (Ub-Rho fluorescence)
- condition_summary: USP1/UAF1, Ub-Rho substrate 300 nM, 1 hour pre-incubation; read-out: IC50 (enzymatic inhibition of USP1)
Under this convention, MET denotes IC50 strictly below 10 nM and NOT MET denotes IC50 at or above 10 nM.

- COc1ncnc(C2CC2)c1-c1ncc2c3ccncc3n(Cc3ccc4c(c3)OCCn3cc(C(F)(F)F)nc3-4)c2n1: NOT MET
- COc1ncnc(C2CC2)c1-c1ncc2c3c(C#N)cccc3n(Cc3ccc(-c4nc(C(F)(F)F)cn4C)cc3)c2n1: NOT MET
- COc1ncnc(C2CC2)c1-c1ncc2c3ccc(P4(=O)CCCC4)cc3n(Cc3ccc(-c4nc(C(F)(F)F)cn4C(C)C)cc3)c2n1: NOT MET
- COc1ncnc(C2CC2)c1-c1ncc2c3cn(C)nc3n(Cc3ccc(-c4nc(C(F)(F)F)cn4C)cc3)c2n1: MET
- COc1ncnc(C2CC2)c1-c1ncc2c3ccc(C(O)(C(F)(F)F)C(F)(F)F)cc3n(Cc3ccc(-c4nc(C(F)(F)F)cn4C)cc3)c2n1: NOT MET
- COc1ncnc(C2CC2)c1-c1ncc2c3ccc(C#N)cc3n(Cc3ccc(-c4nc(C(F)(F)F)c(C5CC5)n4C)cc3)c2n1: NOT MET
- COc1ncnc(C2CC2)c1-c1ncc2c3cnn(C)c3n(Cc3ccc(-c4nc(C(F)(F)F)cn4C(C)C)cc3)c2n1: MET
- COc1ncnc(C2CC2)c1-c1ncc2c3ccc(NS(C)(=O)=O)cc3n(Cc3ccc(-c4nc(C(F)(F)F)cn4C)cc3)c2n1: MET

---

- target_entity: recombinant human His6-USP1/His6-UAF1 composite protein (Homo sapiens (Human))
- test_method_notes: USP1 enzyme activity detection (Ub-Rho fluorescence)
- condition_summary: USP1/UAF1, Ub-Rho substrate 300 nM, 1 hour pre-incubation; read-out: IC50 (enzymatic inhibition of USP1)
reported_metric: IC50 (nM)

* COc1ncnc(C2CC2)c1-c1ncc2c3ccc(C#N)nc3n(Cc3ccc4c(c3)CCCn3cc(C(F)(F)F)nc3-4)c2n1 [Compound 140] | 7.29
* COc1ncnc(C2CC2)c1-c1ncc2c3ccc(C(F)F)cc3n(Cc3ccc(-c4nc(C(F)(F)F)cn4C)cc3)c2n1 [Compound 40] | 15.1
* COc1ncnc(C2CC2)c1-c1ncc2c3ccc(Cl)cc3n(Cc3ccc(-c4nc(C(F)(F)F)cn4C)cc3)c2n1 [Compound 54] | 9.88
* CCC(c1ccc(-c2nc(C(F)(F)F)cn2C(C)C)cc1)n1c2ccccc2c2cnc(-c3c(OC)ncnc3C3CC3)nc21 (stereo not shown) [Compound 23] | 11.7

---

- target_entity: recombinant human His6-USP1/His6-UAF1 composite protein (Homo sapiens (Human))
- test_method_notes: USP1 enzyme activity detection (Ub-Rho fluorescence)
- condition_summary: USP1/UAF1, Ub-Rho substrate 300 nM, 1 hour pre-incubation; read-out: IC50 (enzymatic inhibition of USP1)
reported_metric: IC50 (nM)

• COc1ncnc(C2CC2)c1-c1ncc2c3ccnc(F)c3n(Cc3ccc(-c4nc(C(F)(F)F)cn4C)cc3)c2n1 [Compound 116] = 6.48
• COc1ncnc(C2CC2)c1-c1ncc2c3ccncc3n(C3CCc4cc(-c5nc(C(F)(F)F)cn5C)ccc43)c2n1 (stereo not shown) [Compound 124] = 38.5
• COc1ncnc(C2CC2)c1-c1ncc2c3ccc(C#N)cc3n(Cc3ccc4c(c3)COCCn3cc(C(F)(F)F)nc3-4)c2n1 [Compound 92] = 25.9
• CCOc1cc(C(F)(F)F)nn1-c1ccc(Cn2c3ccccc3c3cnc(-c4c(OC)ncnc4C4CC4)nc32)cc1 [Compound 10] = 17.8
• COc1ncnc(C2CC2)c1-c1ncc2c3ccccc3n(Cc3ccc(-c4nc(C(F)(F)F)cn4C(C)C)nc3)c2n1 [Compound 16] = 7.55
• COc1ncnc(C2CC2)c1-c1ncc2c3ccc(C)nc3n(Cc3ccc4c(c3)CCCn3cc(C(F)(F)F)nc3-4)c2n1 [Compound 128] = 4.8
• COc1ncnc(C2CC2)c1-c1ncc2c3cn(C)nc3n(Cc3ccc(-c4nc(C(F)(F)F)c5n4CCC5)c(F)c3)c2n1 [Compound 143] = 4.67
